target: Mitogen-activated protein kinase 11 (Homo sapiens) (UniProt Q15759); conditions: at 0.1 µM;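 further: reported values are averaged (mean) percent inhibition of p38beta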
Sequence (Q15759 whole entry): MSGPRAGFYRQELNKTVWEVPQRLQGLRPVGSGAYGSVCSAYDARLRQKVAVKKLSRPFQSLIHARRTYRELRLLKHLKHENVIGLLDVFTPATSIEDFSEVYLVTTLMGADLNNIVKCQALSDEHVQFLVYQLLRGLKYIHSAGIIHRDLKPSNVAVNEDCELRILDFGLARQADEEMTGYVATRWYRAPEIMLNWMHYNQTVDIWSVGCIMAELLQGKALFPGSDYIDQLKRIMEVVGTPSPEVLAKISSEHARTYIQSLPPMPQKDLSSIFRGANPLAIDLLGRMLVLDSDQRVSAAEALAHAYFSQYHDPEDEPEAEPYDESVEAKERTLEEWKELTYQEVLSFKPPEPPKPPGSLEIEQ
Observed Property: inhibition (%)
Give bare numbers, in %.

NCc1ccc(-n2c(-c3nonc3N)nc3cnccc32)cc1    5.07
NC(=O)c1cc(-c2ccc(F)cc2)cc(-c2ccncc2)c1N    2.26
Cc1ccc(C(=O)NC(C)C)cc1-c1ccc(C(=O)NCC2CC2)cc1    4.42

// batch mode: one inhibition value per listed entry
1. Fc1ccc(-c2ncn(CCCN3CCOCC3)c2-c2ccncc2)cc1
2. COc1ccc2cc(-c3c(-c4ccncc4)nc(-c4ccc([S+](C)[O-])cc4C)n3C)ccc2c1 (stereo not given)
3. CS(=O)(=O)CCNCc1cc(-c2cc3c(Nc4ccc(OCc5cccc(F)c5)c(Cl)c4)ncnc3s2)cs1
4. O=C(Nc1n[nH]c2nc(-c3ccc(O)cc3)c(Br)cc12)C1CC1
5. COc1cc2ncn(-c3cc(OCc4cccs4)c(C(N)=O)s3)c2cc1OC
6. COc1cc(C)c(N(C)C(=O)CN(C)C)cc1Nc1nc(Nc2cccc(F)c2C(N)=O)c2cc[nH]c2n1

[3.21, -1.91, 1.8, 11.1, 3.88, 2.56]

// batch mode: one inhibition value per listed entry
1. Nc1nccc(-c2c(-c3ccc(F)cc3)ncn2C2CCC(O)CC2)n1 (stereo not given)
2. COc1cc(N2CCN(C(C)C)CC2)ccc1Nc1nc(Nc2ccc(F)cc2C(=O)NC[C@@H](O)CO)c2cc[nH]c2n1
3. NC(=O)c1cc(-c2ccncc2)cc(-c2ccccc2)c1N
4. Clc1ccc(CNc2nccc(-c3cnn4ncccc34)n2)cc1

1: 14.9; 2: 4.89; 3: 6.98; 4: 1.06

// batch mode: one inhibition value per listed entry
1. CCc1nccc2c1nc(-c1nonc1N)n2CC
2. CCS(=O)(=O)c1ccc(OC)c(Nc2ncc(-c3ccccc3Cl)o2)c1
3. C[C@@H](Oc1cc(-n2cnc3ccc(OC4CCN(C)CC4)cc32)sc1C(N)=O)c1ccccc1Cl

1. 2.18
2. 2.55
3. 2.89

// batch mode: one inhibition value per listed entry
1. NS(=O)(=O)c1ccc(N/N=C2\C(=O)Nc3ccc(C(=O)NCCCn4ccnc4)cc32)cc1
2. COc1ccc2cc(-c3c(-c4ccncc4)nc(-c4ccc(S(C)(=O)=O)cc4C)n3C)ccc2c1
3. CCN(CC)Cc1ccc(Nc2nccc(-c3cnn4ncccc34)n2)cc1

5.07
2.54
3.23

Query inhibition on Mitogen-activated protein kinase 11 (Homo sapiens) (UniProt Q15759) for `COc1ccc(-c2ccc3c(NC(=O)C4CC4)n[nH]c3n2)cc1` 2.79
